assay: Half life in dog at 1 mg/kg, iv; assay type: ADME, organism-based, Canis lupus familiaris; parameters: dose 1 mg/kg, route intravenous; conditions: in vivo

[
  {
    "Sample smiles": "CNc1nc2[nH]c(-c3cccc(CNC(=O)COC)n3)cc2c2c1ncn2C",
    "Units text": "h",
    "half-life": 3.3
  }
]

###

experiment: Clearance in dog at 1 mg/kg, iv; assay type: ADME, organism-based, Canis lupus familiaris; design: dose 1 mg/kg, route intravenous; conditions: in vivo

[
  {
    "Sample smiles": "CNc1nc2[nH]c(-c3cccc(CNC(=O)COC)n3)cc2c2c1ncn2C",
    "clearance / mL/min/kg": 3.1
  }
]

###

test: Oral bioavailability in mouse at 3 mg/kg; assay type: ADME, organism-based; details: in vivo
Measured attribute: bioavailability (%)

[
  {
    "Sample smiles": "CNc1nc2[nH]c(-c3cccc(CNC(=O)COC)n3)cc2c2c1ncn2C",
    "Reported": 79
  }
]

###

biological target: Inhibitor of nuclear factor kappa-B kinase subunit alpha (Homo sapiens); experiment: Inhibition of IKK1
Sequence (O15111 whole entry): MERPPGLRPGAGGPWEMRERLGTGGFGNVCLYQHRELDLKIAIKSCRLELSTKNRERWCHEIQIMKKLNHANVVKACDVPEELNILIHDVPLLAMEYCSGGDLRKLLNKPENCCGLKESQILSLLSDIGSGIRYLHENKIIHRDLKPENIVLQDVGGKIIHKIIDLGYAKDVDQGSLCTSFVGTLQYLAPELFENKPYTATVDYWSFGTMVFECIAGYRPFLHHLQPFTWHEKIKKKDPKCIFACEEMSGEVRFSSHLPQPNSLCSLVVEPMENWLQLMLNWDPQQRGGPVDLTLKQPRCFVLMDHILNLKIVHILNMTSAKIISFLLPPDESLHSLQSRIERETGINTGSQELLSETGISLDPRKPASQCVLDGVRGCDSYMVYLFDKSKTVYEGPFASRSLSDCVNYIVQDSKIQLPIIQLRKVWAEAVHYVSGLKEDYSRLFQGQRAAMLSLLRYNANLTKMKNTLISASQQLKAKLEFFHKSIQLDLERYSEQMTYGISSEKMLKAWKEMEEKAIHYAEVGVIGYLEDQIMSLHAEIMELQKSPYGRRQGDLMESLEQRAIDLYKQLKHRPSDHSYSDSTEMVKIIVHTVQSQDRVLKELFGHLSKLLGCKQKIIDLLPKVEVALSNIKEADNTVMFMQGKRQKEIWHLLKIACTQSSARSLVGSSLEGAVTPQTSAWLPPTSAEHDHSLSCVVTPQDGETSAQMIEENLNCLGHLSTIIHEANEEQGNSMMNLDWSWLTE
pIC50: −log10 of the molar value.

[
  {
    "Sample smiles": "CNc1nc2[nH]c(-c3cccc(CNC(=O)COC)n3)cc2c2c1ncn2C",
    "Subject of test": "Inhibitor of nuclear factor kappa-B kinase subunit alpha (Homo sapiens)",
    "pIC50": 5.30
  }
]

###

test system: Blood; assay: Antiinflammatory activity in rat whole blood assessed as inhibition of LPS-induced TNFalpha release treated for 45 mins before LPS challenge measured after 6 hrs by ELISA; assay type: functional, tissue-based
pIC50: −log10 of the molar value.
Measured attribute: pIC50

[
  {
    "Sample smiles": "CNc1nc2[nH]c(-c3cccc(CNC(=O)COC)n3)cc2c2c1ncn2C",
    "Subject of test": "Blood",
    "Reported": 5.77
  }
]

###

experiment: Cmax in mouse at 3 mg/kg, po; format: ADME, organism-based; set-up: dose 3 mg/kg, route oral; settings: in vivo
Measured attribute: Cmax (nM)

[
  {
    "Sample smiles": "CNc1nc2[nH]c(-c3cccc(CNC(=O)COC)n3)cc2c2c1ncn2C",
    "Units text": "nM",
    "Reported": 1600
  }
]

###

experiment: AUC in SJL mouse intestine at 8 mg/kg, iv after 8 hrs; assay type: ADME, organism-based; set-up: time < 8 hr, dose 8 mg/kg, route intravenous

[
  {
    "Sample smiles": "CNc1nc2[nH]c(-c3cccc(CNC(=O)COC)n3)cc2c2c1ncn2C",
    "AUC at 8 h (µM·h)": 1170
  }
]

###

assay: Lipophilicity, log P of the compound by HPLC analysis; assay type: physicochemical
Measured attribute: logP

[
  {
    "Sample smiles": "CNc1nc2[nH]c(-c3cccc(CNC(=O)COC)n3)cc2c2c1ncn2C",
    "Reported": 2
  }
]

###

assay: AUC in Sprague-Dawley rat plasma at 2 mg/kg, iv after 8 hrs; assay type: ADME, organism-based; design: time < 8 hr, dose 2 mg/kg, route intravenous

[
  {
    "Sample smiles": "CNc1nc2[nH]c(-c3cccc(CNC(=O)COC)n3)cc2c2c1ncn2C",
    "AUC at 8 h": "13 µM·h"
  }
]

###

target: Inhibitor of nuclear factor kappa-B kinase subunit beta (Homo sapiens); assay: Inhibition of human IKK2-mediated GST-IkappaBalpha protein fusion phosphorylation
Sequence (O14920 whole entry, the tested form may be a part): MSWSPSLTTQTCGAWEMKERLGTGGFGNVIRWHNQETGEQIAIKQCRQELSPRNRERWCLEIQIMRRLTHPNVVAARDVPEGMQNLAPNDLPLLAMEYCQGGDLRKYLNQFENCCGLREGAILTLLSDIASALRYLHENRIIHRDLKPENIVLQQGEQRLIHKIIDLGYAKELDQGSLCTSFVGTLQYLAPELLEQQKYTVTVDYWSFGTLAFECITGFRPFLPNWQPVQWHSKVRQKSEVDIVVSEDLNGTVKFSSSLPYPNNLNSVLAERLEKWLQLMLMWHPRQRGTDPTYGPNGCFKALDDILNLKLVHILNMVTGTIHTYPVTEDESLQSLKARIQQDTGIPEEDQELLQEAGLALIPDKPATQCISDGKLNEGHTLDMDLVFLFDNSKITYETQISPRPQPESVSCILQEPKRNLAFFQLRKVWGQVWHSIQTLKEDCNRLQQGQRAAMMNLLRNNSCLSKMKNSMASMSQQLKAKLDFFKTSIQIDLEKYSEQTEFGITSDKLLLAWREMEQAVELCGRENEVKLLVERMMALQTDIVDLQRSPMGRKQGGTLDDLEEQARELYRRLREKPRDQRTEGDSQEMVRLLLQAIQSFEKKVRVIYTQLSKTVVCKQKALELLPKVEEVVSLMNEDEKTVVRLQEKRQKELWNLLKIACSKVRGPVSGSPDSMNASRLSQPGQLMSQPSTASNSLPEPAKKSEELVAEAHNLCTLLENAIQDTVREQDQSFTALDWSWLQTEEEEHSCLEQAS
# IC50 per record follows
Measured attribute: IC50 (µM)

[
  {
    "Compound": "CNc1nc2[nH]c(-c3cccc(NCCOC)n3)cc2c2c1ncn2C",
    "Units text": "µM",
    "Reported": 0.02
  },
  {
    "Compound": "CNc1nc2[nH]c(-c3cccc(CN(C)C(=O)COC)n3)cc2c2c1ncn2C",
    "Units text": "µM",
    "Reported": 0.019
  },
  {
    "Compound": "CNC(=O)N(C)Cc1cccc(-c2cc3c(nc(NC)c4ncn(C)c43)[nH]2)n1",
    "Units text": "µM",
    "Reported": 0.0057
  },
  {
    "Compound": "CNc1nc2[nH]c(-c3cccc(CNC(=O)C(C)(C)C)n3)cc2c2c1ncn2C",
    "Units text": "µM",
    "Reported": 0.066
  },
  {
    "Compound": "CNCC(=O)NCc1cccc(-c2cc3c(nc(NC)c4ncn(C)c43)[nH]2)n1",
    "Units text": "µM",
    "Reported": 0.086
  },
  {
    "Compound": "CNc1nc2[nH]c(-c3cccc(N(C)CCOC)n3)cc2c2c1ncn2C",
    "Units text": "µM",
    "Reported": 0.438
  },
  {
    "Compound": "CNc1nc2[nH]c(-c3cccc(CNC(=O)C4CC4)n3)cc2c2c1ncn2C",
    "Units text": "µM",
    "Reported": 0.033
  },
  {
    "Compound": "CNc1nc2[nH]c(-c3cccc(CNC(=O)CCOC)n3)cc2c2c1ncn2C",
    "Units text": "µM",
    "Reported": 0.012
  },
  {
    "Compound": "CNc1nc2[nH]c(-c3cccc(CNC(=O)CC(C)C)n3)cc2c2c1ncn2C",
    "Units text": "µM",
    "Reported": 0.026
  },
  {
    "Compound": "CNc1nc2[nH]c(-c3cccc(CNC(C)=O)c3)cc2c2c1ncn2C",
    "Units text": "µM",
    "Reported": 0.014
  },
  {
    "Compound": "CNc1nc2[nH]c(-c3cccc(C4(NC(C)=O)CC4)n3)cc2c2c1ncn2C",
    "Units text": "µM",
    "Reported": 0.081
  },
  {
    "Compound": "CNc1nc2[nH]c(-c3cccc(CNC(=O)C4(C)CC4)n3)cc2c2c1ncn2C",
    "Units text": "µM",
    "Reported": 0.041
  },
  {
    "Compound": "CNc1nc2[nH]c(-c3cccc(CNC(=O)C(C)(C)O)n3)cc2c2c1ncn2C",
    "Units text": "µM",
    "Reported": 0.012
  },
  {
    "Compound": "CNc1nc2[nH]c(-c3cccc(CNC(=O)COC)n3)cc2c2c1ncn2C",
    "Units text": "µM",
    "Reported": 0.009
  },
  {
    "Compound": "CNc1nc2[nH]c(-c3cccc(CNC(=O)CO)n3)cc2c2c1ncn2C",
    "Units text": "µM",
    "Reported": 0.013
  },
  {
    "Compound": "CNc1nc2[nH]c(-c3cccc(C(C)NC(C)=O)n3)cc2c2c1ncn2C (single isomer, unassigned; enantiomer 2)",
    "Units text": "µM",
    "Reported": 0.009
  },
  {
    "Compound": "CCC(=O)NCc1cccc(-c2cc3c(nc(NC)c4ncn(C)c43)[nH]2)n1",
    "Units text": "µM",
    "Reported": 0.044
  },
  {
    "Compound": "CNc1nc2[nH]c(-c3cccc(NC(C)=O)n3)cc2c2c1ncn2C",
    "Units text": "µM",
    "Reported": 0.13
  },
  {
    "Compound": "CNc1nc2[nH]c(-c3cc(CNC(C)=O)ccn3)cc2c2c1ncn2C",
    "Units text": "µM",
    "Reported": 0.33
  },
  {
    "Compound": "CNc1nc2[nH]c(-c3cccc(CN(C)C(C)=O)n3)cc2c2c1ncn2C",
    "Units text": "µM",
    "Reported": 0.014
  },
  {
    "Compound": "CNc1nc2[nH]c(-c3cccc(CNC(=O)c4csnn4)n3)cc2c2c1ncn2C",
    "Units text": "µM",
    "Reported": 0.028
  },
  {
    "Compound": "CNc1nc2[nH]c(-c3cccc(CNC(C)=O)n3)cc2c2c1ncn2C",
    "Units text": "µM",
    "Reported": 0.019
  },
  {
    "Compound": "CNc1nc2[nH]c(-c3cccc(CNC(=O)CCOC)c3)cc2c2c1ncn2C",
    "Units text": "µM",
    "Reported": 0.013
  },
  {
    "Compound": "CNc1nc2[nH]c(-c3cccc(N4CCN(C)CC4)n3)cc2c2c1ncn2C",
    "Units text": "µM",
    "Reported": 0.128
  },
  {
    "Compound": "CNc1nc2[nH]c(-c3cccc(CNC(=O)c4cnccn4)n3)cc2c2c1ncn2C",
    "Units text": "µM",
    "Reported": 0.023
  },
  {
    "Compound": "CNc1nc2[nH]c(-c3cccc(C(C)NC(C)=O)n3)cc2c2c1ncn2C (single isomer, unassigned)",
    "Units text": "µM",
    "Reported": 0.016
  },
  {
    "Compound": "CNc1nc2[nH]c(-c3cccc(CNC(=O)CCN(C)C)n3)cc2c2c1ncn2C",
    "Units text": "µM",
    "Reported": 0.005
  }
]
